# maps each entry to its IC50
system_name: UniProt Q00955
Sequence (Q00955 whole entry): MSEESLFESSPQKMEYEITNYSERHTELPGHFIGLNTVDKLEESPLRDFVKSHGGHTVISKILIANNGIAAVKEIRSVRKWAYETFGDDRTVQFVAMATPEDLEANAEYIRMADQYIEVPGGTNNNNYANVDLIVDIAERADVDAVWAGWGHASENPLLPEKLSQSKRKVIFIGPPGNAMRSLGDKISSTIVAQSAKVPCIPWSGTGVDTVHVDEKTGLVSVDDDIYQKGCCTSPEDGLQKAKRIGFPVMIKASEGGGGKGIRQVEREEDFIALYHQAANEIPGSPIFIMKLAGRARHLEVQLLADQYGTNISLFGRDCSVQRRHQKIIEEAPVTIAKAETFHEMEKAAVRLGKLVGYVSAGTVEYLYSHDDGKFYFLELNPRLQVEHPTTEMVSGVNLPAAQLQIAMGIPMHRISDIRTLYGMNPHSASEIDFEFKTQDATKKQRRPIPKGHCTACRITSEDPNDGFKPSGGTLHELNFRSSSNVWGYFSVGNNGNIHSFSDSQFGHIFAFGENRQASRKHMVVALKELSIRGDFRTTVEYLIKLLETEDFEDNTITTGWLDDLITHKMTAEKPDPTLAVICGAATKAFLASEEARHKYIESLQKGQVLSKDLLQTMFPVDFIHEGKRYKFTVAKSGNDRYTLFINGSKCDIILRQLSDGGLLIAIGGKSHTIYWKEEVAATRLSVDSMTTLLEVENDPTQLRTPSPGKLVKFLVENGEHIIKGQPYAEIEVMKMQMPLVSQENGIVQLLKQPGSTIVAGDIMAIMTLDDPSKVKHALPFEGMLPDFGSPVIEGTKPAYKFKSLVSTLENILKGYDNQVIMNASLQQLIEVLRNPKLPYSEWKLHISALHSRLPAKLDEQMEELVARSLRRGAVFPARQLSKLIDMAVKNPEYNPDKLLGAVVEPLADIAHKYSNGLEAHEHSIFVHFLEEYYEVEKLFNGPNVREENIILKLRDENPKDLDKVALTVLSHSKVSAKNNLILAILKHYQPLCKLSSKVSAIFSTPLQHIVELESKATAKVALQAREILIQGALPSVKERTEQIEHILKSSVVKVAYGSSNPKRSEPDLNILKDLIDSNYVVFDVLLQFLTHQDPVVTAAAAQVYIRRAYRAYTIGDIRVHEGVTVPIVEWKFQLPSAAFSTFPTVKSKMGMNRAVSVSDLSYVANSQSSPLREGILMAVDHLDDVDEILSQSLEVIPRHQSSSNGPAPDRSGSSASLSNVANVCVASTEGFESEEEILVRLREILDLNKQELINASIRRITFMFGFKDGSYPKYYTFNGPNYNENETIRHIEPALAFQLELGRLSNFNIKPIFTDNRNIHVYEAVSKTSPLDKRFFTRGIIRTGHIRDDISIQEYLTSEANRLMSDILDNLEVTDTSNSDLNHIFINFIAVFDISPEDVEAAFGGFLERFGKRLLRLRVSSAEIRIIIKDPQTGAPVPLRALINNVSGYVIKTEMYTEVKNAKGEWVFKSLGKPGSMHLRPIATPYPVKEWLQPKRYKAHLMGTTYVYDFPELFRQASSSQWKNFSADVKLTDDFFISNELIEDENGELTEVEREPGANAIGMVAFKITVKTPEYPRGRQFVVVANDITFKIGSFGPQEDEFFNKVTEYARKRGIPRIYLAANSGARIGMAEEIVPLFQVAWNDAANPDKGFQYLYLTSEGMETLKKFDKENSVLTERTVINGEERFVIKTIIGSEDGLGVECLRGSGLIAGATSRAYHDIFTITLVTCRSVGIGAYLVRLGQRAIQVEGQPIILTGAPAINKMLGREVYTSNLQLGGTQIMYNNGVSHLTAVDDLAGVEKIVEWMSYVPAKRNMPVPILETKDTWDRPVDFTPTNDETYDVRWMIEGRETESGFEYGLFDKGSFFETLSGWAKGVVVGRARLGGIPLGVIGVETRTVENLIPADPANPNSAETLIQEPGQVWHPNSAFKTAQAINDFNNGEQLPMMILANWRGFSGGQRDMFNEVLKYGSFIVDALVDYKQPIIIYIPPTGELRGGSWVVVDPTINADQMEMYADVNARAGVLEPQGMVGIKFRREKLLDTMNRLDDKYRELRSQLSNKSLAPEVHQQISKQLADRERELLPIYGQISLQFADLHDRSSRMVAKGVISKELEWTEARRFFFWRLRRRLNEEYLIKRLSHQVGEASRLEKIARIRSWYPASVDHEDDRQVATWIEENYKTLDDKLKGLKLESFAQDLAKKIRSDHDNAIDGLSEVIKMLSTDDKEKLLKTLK

# count of solved cases: 5
[
  {
    "compound": "COCCO[C@@H](Cn1c(=O)n([C@H]2CCCNC2=O)c(=O)c2c(C)c(-n3cccn3)sc21)c1cc(F)ccc1OC [Compound I-45]",
    "IC50": "2 to 10 nM"
  },
  {
    "compound": "COCCO[C@@H](Cn1c(=O)n([C@@H]2CCN(C(C)C)C2=O)c(=O)c2c(C)c(-n3nccn3)sc21)c1cc(F)ccc1OC [Compound I-105]",
    "IC50": "2 to 10 nM"
  },
  {
    "compound": "COCCO[C@@H](Cn1c(=O)n([C@@H]2CCCN(C(C)C)C2=O)c(=O)c2c(C)c(-n3nccn3)sc21)c1cc(F)ccc1OC [Compound I-79]",
    "IC50": "2 to 10 nM"
  },
  {
    "compound": "COCCO[C@@H](Cn1c(=O)n([C@@H]2CC(=O)N(C)C2)c(=O)c2c(C)c(-n3nccn3)sc21)c1cc(F)ccc1OC [Compound I-92]",
    "IC50": "0.7 to 2 nM"
  },
  {
    "compound": "COc1ccc(F)cc1[C@H](Cn1c(=O)n([C@H]2CCCN(C)C2=O)c(=O)c2c(C)c(-n3nccn3)sc21)OC1CCOCC1 [Compound I-39]",
    "IC50": "0.7 to 2 nM"
  }
]

Asked: Quick one: IC50 for COc1ccc(F)cc1[C@H](Cn1c(=O)n([C@@H]2CCN(C)C2=O)c(=O)c2c(C)c(-n3cccn3)sc21)O[C@H]1CC[C@@H](O)CC1 [Compound I-181] ?
Given back: 0.7 to 2 nM

Asked: Quick one: IC50 for COc1ccc(F)cc1[C@H](Cn1c(=O)n(C2CCN(C)C2=O)c(=O)c2c(C)c(-n3nccn3)sc21)OC1CCOCC1 (stereo partly drawn) [Compound I-10] ?
Given back: 0.7 to 2 nM

Asked: Quick one: IC50 for COc1ccc(F)cc1[C@H](Cn1c(=O)n([C@H]2CCN(C)C2=O)c(=O)c2c(C)c(-n3nccn3)sc21)OCCCO [Compound I-154] ?
Given back: 0.7 to 2 nM

Asked: Quick one: IC50 for COCCO[C@@H](Cn1c(=O)n([C@H]2CC(=O)N(C)C2)c(=O)c2c(C)c(-n3nccn3)sc21)c1cc(F)ccc1OC [Compound I-94] ?
Given back: 0.7 to 2 nM

Asked: Quick one: IC50 for COCCO[C@@H](Cn1c(=O)n([C@H]2CNC(=O)C2)c(=O)c2c(C)c(-n3nccn3)sc21)c1cc(F)ccc1OC [Compound I-88] ?
Given back: 0.7 to 2 nM

Asked: Quick one: IC50 for COCCO[C@@H](Cn1c(=O)n([C@@H]2CCCNC2=O)c(=O)c2c(C)c(-n3nccn3)sc21)c1cc(F)ccc1OC [Compound I-30] ?
Given back: 0.7 to 2 nM

Asked: Quick one: IC50 for COCCO[C@@H](Cn1c(=O)n([C@@]2(C)CCC(=O)N(C)C2)c(=O)c2c(C)c(-n3nccn3)sc21)c1cc(F)ccc1OC [Compound I-137] ?
Given back: 2 to 10 nM
